Value source: PubChem BioAssay (NCI)

test system: 786-0 renal; experiment: NCI tumour cell line growth inhibition, 48 h
Listing of entries alongside the reported TGI.

O=c1c2c3c(sc2n2c(-c4cc(-c5ccccc5)nn4-c4ccccc4)nnc2n1Cc1ccccc1)CCCC3; > 100 µM

Reported TGI of `CCN(CC)CCOc1ccc(N2C(=O)c3cc(OC)c(OC)cc3C2=O)cc1` : > 100 µM

# TGI (compound: `CC1=C2C(=O)c3ccccc3C2=C(C)S(=O)(=O)O1` ) is > 10 µM

Noted for COc1ccc(CC(O)CN2CCOCC2)cc1 (stereo unspecified) : its TGI reads > 100 µM

Data point: `Cn1c(/C(C#N)=C/c2ccc3ccccc3c2)cc2ccccc21` ; TGI = > 100 µM

The compound listed as `O=P(c1ccccc1)(c1ccccc1)N1O[C@@H](c2ccccc2)C=C[C@H]1c1ccccc1` has a reported TGI of 23.3 µM

---

The following molecules are shown together with reported TGI values.
test system: HT29 colon; assay: NCI tumour cell line growth inhibition, 48 h

Worked examples, 3 molecules total:
C=C[C@@H]1C(CO)=CCC2[C@H]1CCC1C(C)(C)C(=O)CC[C@]21C (stereo not given in full); > 100 µM
O=C1C[C@H](Sc2ccccc2)C2(OCCO2)[C@@H](Sc2ccccc2)C1; 3.7 µM
CC12CC(=O)C3C(C(=O)C1)C32C (stereo not given); > 100 µM

Would you kindly look at the next entry?
Documented TGI of CCCCCCCCCCCCCC(=O)OCC1OC(=O)CC1O (stereo not given) : > 100 µM

---

tested on: HOP-62 NSCLC; assay: NCI tumour cell line growth inhibition, 48 h
ASSAY ENDPOINT: TGI

O=c1ncccn1C1C=C(CO)C(O)C1O (stereo not given); > 50 µM
C/C=C/C=C/c1nc(C#N)c(N)o1; > 100 µM
CC(C(=O)n1nnc2ccccc21)N(c1ccccc1)c1ccccc1 (stereo not given); > 100 µM
CC(CC(=O)Nc1ccc(NC(=O)CC(C)N=NC(N)=S)cc1)N=NC(N)=S (stereo not given); > 100 µM
CC(=O)O[C@]12CCCCCC1C1(O)C(O)CCC[C@H]12 (stereo not given in full); > 100 µM

Entry `COc1cc2c(cc1-c1c(C)noc1C)cc(C)c(=O)n2Cc1ccccn1` — recorded TGI = > 100 µM

Lab book: TGI of `COc1ccc(-c2nnc(N3CCN(C(=O)CN4CCN(c5ccc(OC)cc5)CC4)CC3)nc2-c2ccc(OC)cc2)cc1` noted as 44 µM

# TGI of O=C1C2=C(c3ccccc31)C(c1ccccc1Cl)N1C(=O)CCSC1=N2 (stereo not given) = > 100 µM

Summary for this compound, C=CCC1[C@@H](C(C)(C)C(C(C)=O)C(=O)C(=O)OC)OC(C(C)(C)C)N1C(=O)OC (stereo not given in full) : TGI is > 100 µM

// TGI value for CC(=O)OC1COC(n2c(=S)n(-c3ccccc3)c(=O)c3cc(Br)ccc32)C(OC(C)=O)C1OC(C)=O (stereo not given) : 47.5 µM

---

system: SW-620 colon; assay: NCI tumour cell line growth inhibition, 48 h; in the data active means GI50 below about 0.43 µM; inactive means the rest
Pick one: Y for active, N for inactive

Use the examples below as a reference point.
COCCOCCOCc1n(Cc2ccc3ccccc3n2)c2ccccc2[n+]1Cc1ccc2ccccc2c1; N
C=C(CN1CCc2ccccc2C1)c1ccc(C(=O)Nc2ccccc2N)cc1; N
COc1ccc(/C=C2/CCc3cc4ccc(OC)cc4[o+]c32)c(O)c1; N
CCCCCCCCCCCCCCCCCCNC(=O)[C@H]1CSC(c2cccs2)N1 (stereo not given in full); N
CCN(CC)CCNC(=O)c1cn2ncnc(Oc3ccc(NC(=O)Nc4ccc(Cl)c(C(F)(F)F)c4)c(F)c3)c2c1C; N

--- query ---
# outcome recorded in this test, key = `Cn1c([N+](=O)[O-])cnc1/C=C1\Oc2cc(Cl)ccc2C1=O`
Y
